# protein stability index values compiled below
# System: Saccharomyces cerevisiae
# Assay Summary: protein stability index of tFT-peptide fusion (C-terminal peptide) (PSI (0-1 scale)); higher = more stable (slower turnover)
# Details: genetic background: wild type; temperature: 30 C
Quantity Measured: protein stability index

INSERT INTO results (sequence_chain, recorded_value) VALUES
  ('SPPRSSRTHAPP', 0.711),
  ('VWRGCRVGGQGM', 0.687),
  ('SPRPLFPPHRPT', 0.651),
  ('QTTKPRDPPLHP', 0.787),
  ('APPPPHSSHPPP', 0.713),
  ('NVYRYSWYCSEF', 0.728),
  ('KIKTKKGTKKRK', 0.677),
  ('SRFFFSPRLCVP', 0.604),
  ('WFLCCFGGVSLV', 0.619),
  ('RRTRRATKAKKR', 0.682),
  ('GFFFALGPPFSG', 0.695),
  ('KRSGEGREKIRK', 0.703),
  ('VRFVVVRRFRLP', 0.649),
  ('WYAGIVFTRVWM', 0.5),
  ('IFWVGLSYVAEQ', 0.65),
  ('SHLGPYPAPARP', 0.719),
  ('ATSPTSGGIHTA', 0.662),
  ('TGTVYGGTRRGQ', 0.698),
  ('RAKGILPESEQI', 0.72),
  ('PQLCSPLITIGV', 0.596),
  ('CTFCLGSATVRT', 0.702),
  ('QFTSPHLNPFRT', 0.678),
  ('LPPVQARDPNWQ', 0.637),
  ('PPPPLLPRTPPH', 0.54),
  ('TLCTKCNVFSCC', 0.682),
  ('CWGGWGLWLLEV', 0.516),
  ('CGLRGAGVLCWG', 0.483),
  ('LISRLVSSLIHT', 0.621),
  ('RQLLAVAELLTF', 0.677),
  ('DGGALGVKGCDR', 0.694),
  ('PTQFSSAADLSA', 0.637),
  ('FFSHSAPAPFPL', 0.692),
  ('PRGYSASPNLTS', 0.716),
  ('GSGYRPRVESWI', 0.681),
  ('GWSRCVFGGYRL', 0.7),
  ('ARGGGRSEGGEG', 0.715),
  ('KHTNWGKQLIMT', 0.563),
  ('SSSVQSIPLPSA', 0.71),
  ('PSEFGAGYVMGG', 0.71),
  ('LFLPYLPPRPLL', 0.764),
  ('LLMPLLLHSLVW', 0.409),
  ('SPPPLPPSPLSS', 0.701),
  ('IKERRKVSMKVY', 0.474),
  ('YCPLSRTQSSAR', 0.859),
  ('HHRNNTPLNHSY', 0.63),
  ('PSSPIFPFSSLP', 0.599),
  ('KKKRKKSKKKKK', 0.642),
  ('SRRGIRSSSAAR', 0.714),
  ('RSCGCNGPGRSP', 0.749),
  ('VGRENNENREEE', 0.629),
  ('FVVVCWFWGGGF', 0.425),
  ('ITQTRGPRPLAH', 0.747),
  ('SPSRAGQHLYYP', 0.718),
  ('KNTRIKKMKRRT', 0.827),
  ('SRPPILAHPTPS', 0.707),
  ('PRFFCSGSSPLR', 0.721),
  ('STFQVHSLPISP', 0.702),
  ('VFGCHHLEVSVC', 0.34),
  ('PPALLAPAAPLP', 0.652),
  ('FPGVGARAGVGV', 0.697),
  ('LVLVEAPASRNP', 0.724),
  ('DTSGNQLQDPDI', 0.706),
  ('DRLRSGLSLLLA', 0.493);

* * *

# Test system: Saccharomyces cerevisiae
# Assay Summary: protein stability index of tFT-peptide fusion (C-terminal peptide) (PSI (0-1 scale)); higher = more stable (slower turnover)
# Details: genetic background: das1 deletion; temperature: 30 C
Quantity Measured: protein stability index

INSERT INTO measurements (sequence_chain, target_of_assay, recorded_value) VALUES
  ('EKPEGKDTKTEE [CMK1 C-terminal 12 aa]', 'Saccharomyces cerevisiae', 0.685),
  ('FKSTPIIYSNVI [YER006C-A C-terminal 12 aa]', 'Saccharomyces cerevisiae', 0.724),
  ('GTAASEPTPITK [ATP15 C-terminal 12 aa]', 'Saccharomyces cerevisiae', 0.729),
  ('NEELEKLRPPIT [SIP3 C-terminal 12 aa]', 'Saccharomyces cerevisiae', 0.7),
  ('EQFTRDFGQEGN [VPS4 C-terminal 12 aa]', 'Saccharomyces cerevisiae', 0.719),
  ('YSWMQPESGWNP [YER188W C-terminal 12 aa]', 'Saccharomyces cerevisiae', 0.738),
  ('LQAVAVAVSTKK [FAS2 C-terminal 12 aa]', 'Saccharomyces cerevisiae', 0.659),
  ('DYSRRVLRLMNE [WSC4 C-terminal 12 aa]', 'Saccharomyces cerevisiae', 0.706),
  ('KQYIEPESVKPN [ABD1 C-terminal 12 aa]', 'Saccharomyces cerevisiae', 0.7),
  ('YLISEKIIRKHL [MET14 C-terminal 12 aa]', 'Saccharomyces cerevisiae', 0.685),
  ('HYPLNSIPFTVT [YMR326C C-terminal 12 aa]', 'Saccharomyces cerevisiae', 0.706),
  ('KVVTRSIVLWGV [YGL235W C-terminal 12 aa]', 'Saccharomyces cerevisiae', 0.632),
  ('IMLTLLMFTGAV [PLB3 C-terminal 12 aa]', 'Saccharomyces cerevisiae', 0.402),
  ('LCILRIVGVANF [YER039C-A C-terminal 12 aa]', 'Saccharomyces cerevisiae', 0.426),
  ('NPSILGDFTRED [RTR1 C-terminal 12 aa]', 'Saccharomyces cerevisiae', 0.663),
  ('NRHSYCFSNLAP [YOL085W-A C-terminal 12 aa]', 'Saccharomyces cerevisiae', 0.739),
  ('SGWSNFEDFFSR [YKL222C C-terminal 12 aa]', 'Saccharomyces cerevisiae', 0.744),
  ('LNLPWKRKKTTI [YCR101C C-terminal 12 aa]', 'Saccharomyces cerevisiae', 0.707),
  ('DYKTKRNPSVLH [ISU2 C-terminal 12 aa]', 'Saccharomyces cerevisiae', 0.688),
  ('ATTNISVLQECV [VRL1 C-terminal 12 aa]', 'Saccharomyces cerevisiae', 0.666),
  ('KKKNRSKIKFNY [PTH4 C-terminal 12 aa]', 'Saccharomyces cerevisiae', 0.724);

* * *

# Test system: Saccharomyces cerevisiae
# Assay Summary: protein stability index of tFT-peptide fusion (C-terminal peptide) (PSI (0-1 scale)); higher = more stable (slower turnover)
# Details: genetic background: wild type; temperature: 30 C
Quantity Measured: protein stability index

INSERT INTO assay_data (sequence_chain, target_of_assay, quantity_measured, recorded_value) VALUES
  ('LCGLDCLLRPCY', 'Saccharomyces cerevisiae', 'protein stability index', 0.681),
  ('PLFASLHPSGPL', 'Saccharomyces cerevisiae', 'protein stability index', 0.699),
  ('ASLPPPFTMLLL', 'Saccharomyces cerevisiae', 'protein stability index', 0.686),
  ('APPAHPARSHTP', 'Saccharomyces cerevisiae', 'protein stability index', 0.69),
  ('SGPTIRRRLFVH', 'Saccharomyces cerevisiae', 'protein stability index', 0.333),
  ('DIAYPRITDSRC', 'Saccharomyces cerevisiae', 'protein stability index', 0.714),
  ('GFRCTVWGRAVI', 'Saccharomyces cerevisiae', 'protein stability index', 0.637),
  ('ESQGYGSQAKLA', 'Saccharomyces cerevisiae', 'protein stability index', 0.694),
  ('WVCARQVGIGWG', 'Saccharomyces cerevisiae', 'protein stability index', 0.666),
  ('RKGEASRVRWSE', 'Saccharomyces cerevisiae', 'protein stability index', 0.668),
  ('SFSRLYGCVPRD', 'Saccharomyces cerevisiae', 'protein stability index', 0.678),
  ('SGSRRTSRVGSR', 'Saccharomyces cerevisiae', 'protein stability index', 0.721),
  ('WSSCISCLLRGV', 'Saccharomyces cerevisiae', 'protein stability index', 0.688),
  ('IRFFLIVFCFLR', 'Saccharomyces cerevisiae', 'protein stability index', 0.284),
  ('PFPPRPPSDRIR', 'Saccharomyces cerevisiae', 'protein stability index', 0.659),
  ('GRYYVPGLAALV', 'Saccharomyces cerevisiae', 'protein stability index', 0.653),
  ('SSPPPPPPPLPL', 'Saccharomyces cerevisiae', 'protein stability index', 0.705),
  ('FFGVFIFPVSCR', 'Saccharomyces cerevisiae', 'protein stability index', 0.291),
  ('IILKEDKSIKKR', 'Saccharomyces cerevisiae', 'protein stability index', 0.66),
  ('KQKLEGTIIREL', 'Saccharomyces cerevisiae', 'protein stability index', 0.674),
  ('KLMGWFVGVVAR', 'Saccharomyces cerevisiae', 'protein stability index', 0.442),
  ('ISLRELNEVCRS', 'Saccharomyces cerevisiae', 'protein stability index', 0.668),
  ('FPALPPPLPQPP', 'Saccharomyces cerevisiae', 'protein stability index', 0.585),
  ('RSFPLRLLSLFV', 'Saccharomyces cerevisiae', 'protein stability index', 0.585),
  ('LPRFRNRFPRRW', 'Saccharomyces cerevisiae', 'protein stability index', 0.664),
  ('SLLFLVLFFPLV', 'Saccharomyces cerevisiae', 'protein stability index', 0.432),
  ('VGVGAGQWVVWY', 'Saccharomyces cerevisiae', 'protein stability index', 0.682),
  ('CWGGGGLWLLEV', 'Saccharomyces cerevisiae', 'protein stability index', 0.515),
  ('GSLLVCGMVAGM', 'Saccharomyces cerevisiae', 'protein stability index', 0.524),
  ('VGFSVLGGRAGW', 'Saccharomyces cerevisiae', 'protein stability index', 0.712),
  ('LRAPRGEFHWFL', 'Saccharomyces cerevisiae', 'protein stability index', 0.684),
  ('RFLESNGRPFHK', 'Saccharomyces cerevisiae', 'protein stability index', 0.673),
  ('CCARRWLNFEYW', 'Saccharomyces cerevisiae', 'protein stability index', 0.72),
  ('GVLSYCGFVTFG', 'Saccharomyces cerevisiae', 'protein stability index', 0.603),
  ('GGWWVLCGGGWG', 'Saccharomyces cerevisiae', 'protein stability index', 0.567),
  ('RVEPYDLARRVL', 'Saccharomyces cerevisiae', 'protein stability index', 0.726),
  ('WAFVVCGAVFFW', 'Saccharomyces cerevisiae', 'protein stability index', 0.358),
  ('LCVFFRCFFVGG', 'Saccharomyces cerevisiae', 'protein stability index', 0.514),
  ('PPHTLTSTIRPN', 'Saccharomyces cerevisiae', 'protein stability index', 0.73),
  ('DCRPNIRSRVSG', 'Saccharomyces cerevisiae', 'protein stability index', 0.785),
  ('RLVSPVLPLSRL', 'Saccharomyces cerevisiae', 'protein stability index', 0.728),
  ('GGRRHQRARLPL', 'Saccharomyces cerevisiae', 'protein stability index', 0.605),
  ('AWGVCRPGGRGG', 'Saccharomyces cerevisiae', 'protein stability index', 0.681),
  ('RACRISSIRVGI', 'Saccharomyces cerevisiae', 'protein stability index', 0.651),
  ('VRGVCGVGFGVW', 'Saccharomyces cerevisiae', 'protein stability index', 0.604),
  ('GYTSRGISFLRA', 'Saccharomyces cerevisiae', 'protein stability index', 0.698),
  ('RMCEILGIRHLI', 'Saccharomyces cerevisiae', 'protein stability index', 0.245),
  ('LISADTFVHFND', 'Saccharomyces cerevisiae', 'protein stability index', 0.725),
  ('SASAILPWAIKL', 'Saccharomyces cerevisiae', 'protein stability index', 0.639),
  ('SLLPAPTPCPPP', 'Saccharomyces cerevisiae', 'protein stability index', 0.701),
  ('LVKKVKSSLASL', 'Saccharomyces cerevisiae', 'protein stability index', 0.65),
  ('CFRTVPPPALTR', 'Saccharomyces cerevisiae', 'protein stability index', 0.72),
  ('VCLVFLFQFVLI', 'Saccharomyces cerevisiae', 'protein stability index', 0.481),
  ('RGYVSLSEGVAA', 'Saccharomyces cerevisiae', 'protein stability index', 0.676),
  ('PPPPALLPPPPA', 'Saccharomyces cerevisiae', 'protein stability index', 0.781),
  ('GSDWGYDSGLKG', 'Saccharomyces cerevisiae', 'protein stability index', 0.765),
  ('GYAFPPPHRVRT', 'Saccharomyces cerevisiae', 'protein stability index', 0.741),
  ('PPSATPPHPPPS', 'Saccharomyces cerevisiae', 'protein stability index', 0.666),
  ('GGGWCEMLIVVG', 'Saccharomyces cerevisiae', 'protein stability index', 0.441),
  ('GAKQSSKRPRAS', 'Saccharomyces cerevisiae', 'protein stability index', 0.719),
  ('GKIGYQLGAVIN', 'Saccharomyces cerevisiae', 'protein stability index', 0.709),
  ('CSSACPPPPPAT', 'Saccharomyces cerevisiae', 'protein stability index', 0.733),
  ('RFHFAAPPHRPS', 'Saccharomyces cerevisiae', 'protein stability index', 0.879),
  ('RSGSRNYPGFPR', 'Saccharomyces cerevisiae', 'protein stability index', 0.764),
  ('INGINHKIIKIV', 'Saccharomyces cerevisiae', 'protein stability index', 0.155),
  ('AWRVVRIFFCGG', 'Saccharomyces cerevisiae', 'protein stability index', 0.72),
  ('LPPRSPLYPLPP', 'Saccharomyces cerevisiae', 'protein stability index', 0.613),
  ('PTLLRRPLPNLG', 'Saccharomyces cerevisiae', 'protein stability index', 0.73),
  ('CVAAISGESLLR', 'Saccharomyces cerevisiae', 'protein stability index', 0.667),
  ('GFTQLQNERVDG', 'Saccharomyces cerevisiae', 'protein stability index', 0.785);
